# measuredOn: HCV NS5B polymerase (Hepatitis C virus genotype 1b)
# Sequence (P26663 2420-3010): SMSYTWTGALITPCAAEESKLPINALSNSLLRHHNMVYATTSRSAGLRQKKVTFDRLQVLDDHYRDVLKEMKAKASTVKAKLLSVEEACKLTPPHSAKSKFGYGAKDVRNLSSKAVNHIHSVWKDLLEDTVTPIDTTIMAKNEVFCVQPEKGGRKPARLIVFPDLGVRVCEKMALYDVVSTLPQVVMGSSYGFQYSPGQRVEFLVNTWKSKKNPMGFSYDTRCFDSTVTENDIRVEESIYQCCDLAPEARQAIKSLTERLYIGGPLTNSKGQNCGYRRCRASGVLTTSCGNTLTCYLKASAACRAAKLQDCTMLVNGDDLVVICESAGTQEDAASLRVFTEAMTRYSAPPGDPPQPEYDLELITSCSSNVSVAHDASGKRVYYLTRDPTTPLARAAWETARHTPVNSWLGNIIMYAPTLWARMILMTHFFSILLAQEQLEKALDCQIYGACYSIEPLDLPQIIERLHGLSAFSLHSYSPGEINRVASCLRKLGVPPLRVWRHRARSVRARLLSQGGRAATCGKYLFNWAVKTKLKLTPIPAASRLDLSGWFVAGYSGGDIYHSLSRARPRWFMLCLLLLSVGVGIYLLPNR
propertyName: IC50

Sample records with IC50:
compound: CC1(c2ccccc2)CN(C2CCC2)C(=O)C(C2=NS(=O)(=O)c3cc(NS(C)(=O)=O)ccc3N2)=C1O (centres unmarked)
observed: 1 to 4 µM

compound: CC(C)CCC1(C)C(O)=C(C2=NS(=O)(=O)c3cc(NS(C)(=O)=O)ccc3N2)C(=O)N2CCCC21 (centres unmarked)
observed: < 0.1 µM

compound: CC(C)CCC1CC(O)=C(C2=NS(=O)(=O)c3cc(NS(C)(=O)=O)ccc3N2)C(=O)N1C1CCCC1 (centres unmarked)
observed: 1 to 4 µM

compound: CC(C)CCN1C(=O)C(C2=NS(=O)(=O)c3cc(NS(C)(=O)=O)ccc3N2)=C(O)C[C@@H]1c1ccccc1
observed: 0.1 to 1 µM

compound: CC(C)CC1CC(O)=C(C2=NS(=O)(=O)c3cc(NS(C)(=O)=O)ccc3N2)C(=O)N1C1CCCC1 (centres unmarked)
observed: 1 to 4 µM

compound: CC(C)CCC1(C)CN(N2CCCC2)C(=O)C(C2=NS(=O)(=O)c3cc(NS(C)(=O)=O)ccc3N2)=C1O (centres unmarked)
observed: < 0.1 µM

Prompt line: Quick one: IC50 for CC(C)=CCC1CN(C2CCCC2)C(=O)C(C2=NS(=O)(=O)c3cc(NS(C)(=O)=O)ccc3N2)=C1O (centres unmarked) ?
Response line: < 0.1 µM

Prompt line: What does the data say about its IC50? Entry: CC(C)CCC1(COCc2ccccc2)CN(C2CCCC2)C(=O)C(C2=NS(=O)(=O)c3cc(NS(C)(=O)=O)ccc3N2)=C1O (centres unmarked)
Response line: 1 to 4 µM

Prompt line: What does the record list as IC50 for CC(C)CCC1(CO)CN(C2CCCC2)C(=O)C(C2=NS(=O)(=O)c3cc(NS(C)(=O)=O)ccc3N2)=C1O (centres unmarked) ?
Response line: < 0.1 µM

Prompt line: Given the entry CC1(C)CN(C2CCCC2)C(=O)C(C2=NS(=O)(=O)c3cc(NS(C)(=O)=O)ccc3N2)=C1O , report its measured IC50.
Response line: 1 to 4 µM

Prompt line: Look at this compound and give its reported IC50. CC(C)(C)CCN1CC(C)(C2CCCC2)C(O)=C(C2=NS(=O)(=O)c3cc(NS(C)(=O)=O)ccc3N2)C1=O (centres unmarked)
Response line: < 0.1 µM

Prompt line: Query: IC50; subject: CC#CCC1(C)CN(C2CCCC2)C(=O)C(C2=NS(=O)(=O)c3cc(NS(C)(=O)=O)ccc3N2)=C1O (centres unmarked)
Response line: 0.1 to 1 µM

Prompt line: Item CC(C)[C@H]1CC(O)=C(C2=NS(=O)(=O)c3cc(NS(C)(=O)=O)ccc3N2)C(=O)N1Cc1ccc(F)c(Cl)c1 has what recorded IC50?
Response line: < 0.1 µM

Prompt line: Report IC50 for CC(C)CCN1CC(C)(C)C(O)=C(C2=NS(=O)(=O)c3cc(NS(C)(=O)=O)ccc3N2)C1=O please.
Response line: 0.1 to 1 µM
